Here, each record is paired with measured melting point data.

- compound: "Cc1oc(-c2ccccc2)nc1Cc1cc2cc(C=CC=C3OC(=O)NC3=O)ccc2o1"
  melting point: "237 to 239 °C"
- compound: "Cc1oc(-c2ccccc2)nc1COc1ccc(CCCCC2OC(=O)NC2=O)cc1 (centres unmarked)"
  melting point: "186 to 187 °C"
- compound: "Cc1oc(-c2ccccc2)nc1CCOc1ccc(C=CC=CC=C2OC(=O)NC2=O)cc1"
  melting point: "209 to 211 °C"
- compound: "Cc1oc(-c2ccccc2)nc1COc1ccc(CCCCCC2OC(=O)NC2=O)cc1 (centres unmarked)"
  melting point: "120 to 121 °C"
- compound: "Cc1oc(-c2ccccc2)nc1CCOc1ccc(CCCC2OC(=O)NC2=O)cn1 (centres unmarked)"
  melting point: "169 to 171 °C"
- compound: "Cc1oc(-c2ccccc2)nc1CCOc1ccc(CCCCCC2OC(=O)NC2=O)cc1 (centres unmarked)"
  melting point: "157 to 158 °C"
- compound: "Cc1oc(-c2ccccc2)nc1Cc1cc2cc(CCCC3OC(=O)NC3=O)ccc2o1 (centres unmarked)"
  melting point: "184 to 185 °C"

Exercise: Could you tell me which melting point is on file for Cc1cccc(-c2nc(CCOc3ccc(CCCC4OC(=O)NC4=O)cc3)c(C)o2)c1 (centres unmarked) ?
Key: 149 to 150 °C
